Listed compounds paired with reported TGI
- Test system: IGROV1 ovarian
- Assay Explanation: NCI tumour cell line growth inhibition, 48 h
Provide the reading as a plain figure in µM.

Compound	Study Target	Units Of Measure	TGI
O=c1c2cc(I)ccc2nc(Sc2ccc([N+](=O)[O-])cc2[N+](=O)[O-])n1Cc1ccccc1	IGROV1 ovarian	µM	6.42

Lookup: Form: Entry = Nc1nc(Cl)c(N=Nc2ccc(Cl)cc2)c(NCC2(CO)CCC(CCc3ccccc3)C2)n1 (stereo not given) | System = IGROV1 ovarian | TGI = ____
Found: 23.4

Lookup: Form: Entry = Cc1cccc2c(NCCCN(C)C)c3c([N+](=O)[O-])ccc(C)c3nc12 | System = IGROV1 ovarian | TGI = ____
Found: 0.666

Lookup: Form: Entry = CC1(C)CC[C@]2(C(=O)Nc3ccccn3)CC[C@]3(C)C(=CC[C@@H]4[C@@]5(C)C/C(=C/c6ccncc6)C(=O)C(C)(C)[C@@H]5CC[C@]43C)[C@@H]2C1 | System = IGROV1 ovarian | TGI = ____
Found: 67.3

Lookup: Form: Entry = O=S(=O)(c1ccccc1)n1c(C(O)c2ccccc2)cc2ccccc21 (stereo not given) | System = IGROV1 ovarian | TGI = ____
Found: 35.4

Lookup: Form: Entry = NCCCCCn1c2c(c3ccccc3c1=O)C(=O)c1ccccc1-2 | System = IGROV1 ovarian | TGI = ____
Found: 2.75

Lookup: Form: Entry = S=C(S)N1CCCCC1 | System = IGROV1 ovarian | TGI = ____
Found: 100

Lookup: Form: Entry = COc1cc(/C=C2\C(=O)Nc3ccccc32)cc(OC)c1O | System = IGROV1 ovarian | TGI = ____
Found: 20.4

Lookup: Form: Entry = O=C1C=C(Nc2ccc(Br)cc2)c2ccccc2C1=O | System = IGROV1 ovarian | TGI = ____
Found: 33.2

Lookup: Form: Entry = O=C(CN(/C=C/C(=O)C(F)(F)F)c1ccc(Cl)cc1)c1ccc(F)cc1 | System = IGROV1 ovarian | TGI = ____
Found: 26.2

---

Listed molecules paired with reported TGI
- Test system: PC-3 prostate
- Assay Explanation: NCI tumour cell line growth inhibition, 48 h

Molecule	Study Target	Value
Cc1ccc(C2=Nc3c(N)nc(N)nc3NC(c3cccc(Nc4ccnc5cc(C(F)(F)F)ccc45)c3)C2)cc1 (stereo unspecified)	PC-3 prostate	4.38 µM
OC(CC(CC(O)(C(F)(F)F)C(F)(F)F)=NN=C(CC(O)(C(F)(F)F)C(F)(F)F)CC(O)(C(F)(F)F)C(F)(F)F)(C(F)(F)F)C(F)(F)F	PC-3 prostate	> 10 µM
Clc1ccccc1/C=C/c1ccnc2ccccc12	PC-3 prostate	30.6 µM
C=C(CCOC)CCC1CCCCC/C1=N\N(C)C (stereo unspecified)	PC-3 prostate	> 100 µM
c1ccc2c(c1)Oc1cccc3cccc-2c13	PC-3 prostate	> 100 µM

Lookup: I have this molecule here, CNCCCNc1nc2ccccc2c2c(=O)c3cc(F)ccc3sc12 , and I need its recorded TGI.
Found: 3.25 µM

Lookup: I have this molecule here, COc1ccc(C(NS(=O)(=O)c2ccc(C)cc2)c2c(C(CBr)OC)c3ccccc3n2S(=O)(=O)c2ccccc2)cc1OC (stereo unspecified) , and I need its recorded TGI.
Found: > 100 µM

Lookup: I have this molecule here, CCC(C)NC(=S)N/N=C(\C)c1nc2ncccc2[nH]1 (stereo unspecified) , and I need its recorded TGI.
Found: > 100 µM

Lookup: I have this molecule here, C[C@]12CCC(N3CCCC3)CC1=CC[C@@H]1[C@@H]2CC[C@]2(C)C(O)[C@H](n3ccnc3)C[C@@H]12 (stereo partly specified) , and I need its recorded TGI.
Found: > 100 µM

Lookup: I have this molecule here, Cc1ccc(CN(C)c2ccc(CO)c(Cl)c2)cc1 , and I need its recorded TGI.
Found: 97.5 µM

---

- System: U251 CNS
- Assay Explanation: NCI tumour cell line growth inhibition, 48 h
Measure Name: TGI

> print(dat)
                                   compound  measure.name     value
1  Cc1ccccc1NC(=O)C(=O)c1c(O)c2ccc(O)cc2oc1=O           TGI  > 100 µM
2  O=C(O)c1ccc(NCc2nc3cc(Cl)c(Cl)cc3[nH]2)cc1           TGI  > 100 µM
3  OC(CC(CC(O)(C(F)(F)F)C(F)(F)F)=NN=C(CC(O)(C(F)(F)F)C(F)(F)F)CC(O)(C(F)(F)F)C(F)(F)F)(C(F)(F)F)C(F)(F)F           TGI   > 10 µM
4                  Cc1nc2c(=O)[nH]ncc2[nH]1           TGI  > 100 µM
5         COC(=O)c1cnc(Cl)c([N+](=O)[O-])c1           TGI   4.23 µM

Lookup: I have this compound here, COC(=O)[C@@]12CN(C)[C@@H](C(C)(C)C)N1C(=O)OC2c1ccccc1 (stereo not given in full) , and I need its recorded TGI.
Found: > 100 µM

Lookup: I have this compound here, c1ccc2nc(N/N=C3\CCCCC3C3CCCCC3)ccc2c1 (stereo not given) , and I need its recorded TGI.
Found: 20.8 µM

Lookup: I have this compound here, C[N+](C)(CCNc1ccc(NCC[N+](C)(C)Cc2ccc([N+](=O)[O-])cc2)c2c1C(=O)c1ccccc1C2=O)Cc1ccc([N+](=O)[O-])cc1 , and I need its recorded TGI.
Found: > 100 µM

Lookup: I have this compound here, Cc1csc2nc(-c3ccncc3)cn12 , and I need its recorded TGI.
Found: > 72.6 µM

Lookup: I have this compound here, COc1cc(S(=O)(=O)Nc2nc(-c3ccc(N4C(=O)/C(=C\c5cccs5)N=C4c4ccccc4)cc3)cs2)ccc1Cl , and I need its recorded TGI.
Found: > 100 µM

---

- System: K-562 leukemia
- Assay Explanation: NCI tumour cell line growth inhibition, 48 h
Measure Name: TGI

The following molecules have reported results that may help.
> print(dat)
                           substance.smiles  measure.name     value
1             Clc1ccccc1/C=C/c1ccnc2ccccc12           TGI   38.6 µM
2   COc1ccc(-c2cc(=O)c3c(O)cc(O)cc3o2)cc1OC           TGI  > 100 µM
3        O=C1C=C(Nc2ccc(Br)cc2)c2ccccc2C1=O           TGI     34 µM
4                           Cn1ccc2c1SSSSS2           TGI  > 100 µM
5  COC(=O)/C=C1/SC(=Nc2ccc(F)cc2)N(CCc2c[nH]c3ccc(O)cc23)C1=O           TGI  > 100 µM

Lookup: I have this molecule here, N#CC(C#N)=Cc1c[nH]c(=O)[nH]c1=O , and I need its recorded TGI.
Found: > 100 µM

---

Listed molecules paired with reported GI50
- Test system: HCT-116 colon
- Assay Explanation: NCI tumour cell line growth inhibition, 48 h

> print(dat)
                                   molecule     value
1  O=C(CN(/C=C/C(=O)C(F)(F)F)c1ccc(Cl)cc1)c1ccc(F)cc1   14.5 µM
2  CCCCOC(=O)CC(CC(=O)OCCCC)(OC(C)=O)C(=O)OCCCC   70.9 µM
3  Cc1nn2c(/C=N/N=C(N)N)c(-c3ccc(Cl)c([N+](=O)[O-])c3)nc2s1  0.192 µM

Lookup: I have this molecule here, NCCCCCn1c2c(c3ccccc3c1=O)C(=O)c1ccccc1-2 , and I need its recorded GI50.
Found: 0.151 µM

Lookup: I have this molecule here, O=C(Nc1ccc(Cl)cc1)Nc1ccc(Cl)c(C(F)(F)F)c1 , and I need its recorded GI50.
Found: 1.95 µM

Lookup: I have this molecule here, CC(C)Oc1ccc(-c2nn([C@@H](C)c3oc4ccc(F)cc4c(=O)c3-c3cccc(F)c3)c3ncnc(N)c23)cc1F , and I need its recorded GI50.
Found: 8.96 µM

Lookup: I have this molecule here, COC(=O)/C=C1/SC(=Nc2ccc(F)cc2)N(CCc2c[nH]c3ccc(O)cc23)C1=O , and I need its recorded GI50.
Found: 4.89 µM

Lookup: I have this molecule here, COc1cccc2c1O/C(=C\c1ncc([N+](=O)[O-])n1C)C2=O , and I need its recorded GI50.
Found: 0.0825 µM

Lookup: I have this molecule here, CC(=O)N1CCC(Nc2ncc3cc(Oc4ccc(F)cc4F)c(=O)n(C)c3n2)CC1 , and I need its recorded GI50.
Found: > 25 µM

Lookup: I have this molecule here, COc1ccc(/C=C2\COc3ccc(O)c(O)c3C2=O)cc1 , and I need its recorded GI50.
Found: 2 µM

Lookup: I have this molecule here, Cc1cc2cn3c4ccc(O)cc4nc(N)c3c2cc1C , and I need its recorded GI50.
Found: < 0.01 µM

Lookup: I have this molecule here, Nc1nc2cc(O)ccc2n2cc3c(F)cccc3c12 , and I need its recorded GI50.
Found: 0.724 µM

Lookup: I have this molecule here, CCc1ccc(C(=O)/C=C/C23c4ccccc4C(c4ccccc42)C2C(=O)NC(=O)C23)cc1 (stereo not drawn) , and I need its recorded GI50.
Found: 1.58 µM
